# EXPERIMENTAL_TARGET: T1, cyno FcRn/b2M (cyno, UniProt Q8SPV9 24-297; Q8SPW0 21-119, biotinylated)
# T1 construct: bought recombinant biotinylated protein (Immunitrack ITF05 or ACRO FCM-C82W5); also called cFcRn; cFcRn/cb2M
# T1 sequence (Q8SPV9 24-297 limits assumed, chain 1 of 2): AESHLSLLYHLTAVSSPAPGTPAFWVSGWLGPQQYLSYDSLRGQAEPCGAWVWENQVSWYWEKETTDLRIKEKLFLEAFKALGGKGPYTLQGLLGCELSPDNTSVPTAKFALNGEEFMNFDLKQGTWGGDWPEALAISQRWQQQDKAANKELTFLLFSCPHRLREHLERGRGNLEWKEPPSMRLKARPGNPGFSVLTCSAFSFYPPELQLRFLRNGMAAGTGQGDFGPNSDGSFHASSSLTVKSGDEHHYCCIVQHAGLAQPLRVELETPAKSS
# T1 sequence (Q8SPW0 21-119 limits assumed, chain 2 of 2): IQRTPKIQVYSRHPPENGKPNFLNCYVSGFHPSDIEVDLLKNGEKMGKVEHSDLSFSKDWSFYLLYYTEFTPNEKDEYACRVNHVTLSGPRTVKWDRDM
# TEST_PROTOCOL: SPR pH 7.4;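 also: surface plasmon resonance kinetics, periplasmic extracts diluted 1:10 flowed over immobilized target at 25 °C, 120 s association then 600–3600 s dissociation, buffer with 150 mM NaCl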
VALUE_TYPE: koff (s⁻¹)

{"columns": ["BINDER", "VALUE_TYPE", "UNITS_SYMBOL", "VALUE_REPORTED"],
 "data": [
  ["T0263018B11 F27L (VHH, name in Kabat numbering, FLAG3-His6 tagged) VHH: EVQLVESGGGVVQPGGSLRLSCAASGLTFSSYAMYWVRQAPGKGLEWVSAISSGGGSTDYADSVKGRFTISRDNSKNTLYLQMNSLRPEDTALYYCAADTLYTSLTWYSYWGQGTLVTVSS", "koff", "s⁻¹", 0.048]
]}

I: T0263018B11 Y102T (VHH, name in Kabat numbering, FLAG3-His6 tagged) VHH: EVQLVESGGGVVQPGGSLRLSCAASGFTFSSYAMYWVRQAPGKGLEWVSAISSGGGSTDYADSVKGRFTISRDNSKNTLYLQMNSLRPEDTALYYCAADTLYTSLTWYSTWGQGTLVTVSS
II: T0263018B11 F27Y (VHH, name in Kabat numbering, FLAG3-His6 tagged) VHH: EVQLVESGGGVVQPGGSLRLSCAASGYTFSSYAMYWVRQAPGKGLEWVSAISSGGGSTDYADSVKGRFTISRDNSKNTLYLQMNSLRPEDTALYYCAADTLYTSLTWYSYWGQGTLVTVSS
### Prompt Please indicate which has the smaller reported koff: I , or II . Return value: the label identifying the chosen record.
### Response II
